Source listed as patent US10131652B2.

Tested on: blackgrass (Alopecurus myosuroides)
Assay: Test D pre-/postemergence plant response
Type: in vivo
Settings: Postemergence, 125 g ai/ha; scale 0 to 100, 0 no effect, 100 complete control
Please provide measured Plant response rating, Blackgrass for the entries that follow.
Numbers only.

INSERT INTO assay_data (compound, recorded_metric, value_measured) VALUES
  ('Fc1ccc(Oc2ncc(Cl)cn2)c(-c2cc(C(F)(Cl)Cl)on2)c1 [Compound 221]', 'Plant response rating, Blackgrass', 40),
  ('N#Cc1cccc(Oc2ncc(Cl)cn2)c1-c1cc(C(F)F)on1 [Compound 180]', 'Plant response rating, Blackgrass', 5);

Okay, here is my list. What is Plant response rating, Blackgrass for each of these?
1. Cc1cc(-c2c(F)cccc2Oc2ncc(Br)cn2)on1 [Compound 230]
2. Fc1ccc(Oc2ncc(Cl)cn2)c(-c2cc(C(F)F)on2)c1Cl [Compound 96]
3. FCc1cc(-c2c(Br)cccc2Oc2ncc(Cl)cn2)no1 [Compound 191]

[10, 20, 5]

----------
Test system: galium (catchweed bedstraw, Galium aparine)
Experiment: Test D pre-/postemergence plant response
Format: in vivo
Settings: Postemergence, 125 g ai/ha; scale 0 to 100, 0 no effect, 100 complete control
recorded-metric: Plant response rating, Galium
Answers are plain numbers.

# annotated cases, reported Plant response rating, Galium shown
INSERT INTO measurements (compound, study_target, value_measured) VALUES
  ('CC(F)(F)c1cc(-c2ccccc2Oc2ncc(Cl)cn2)on1 [Compound 178]', 'galium (catchweed bedstraw, Galium aparine)', 85),
  ('Fc1cccc(Oc2ncc(Cl)cn2)c1-c1cc(C2CC2)on1 [Compound 130]', 'galium (catchweed bedstraw, Galium aparine)', 100),
  ('Cc1cc(-c2ccccc2Oc2ncc(Cl)cn2)no1 [Compound 153]', 'galium (catchweed bedstraw, Galium aparine)', 80);

In the following, a different compound is considered.
For reference, reported Plant response rating, Galium for FC(F)(F)c1cc(-c2c(Br)cccc2Oc2ncc(Cl)cn2)no1 [Compound 170] stands at 80

----------
Test system: kochia (Kochia scoparia)
Assay: Test B pre-/postemergence plant response
Assay type: in vivo
Settings: Postemergence, 31 g ai/ha; 0 to 100 scale (0 no effect, 100 complete control)
recorded-metric: Plant response rating, Kochia
One number for each entry.

Worked examples follow.
INSERT INTO assay_data (structure_string, study_target, value_measured) VALUES
  ('Cc1csc(-c2ccccc2Oc2ncc(Cl)cn2)c1', 'kochia (Kochia scoparia)', 10),
  ('Cc1cc(-c2c(F)cccc2Oc2ncc(Br)cn2)on1', 'kochia (Kochia scoparia)', 80),
  ('Brc1cnc(Oc2ccccc2-c2ccsc2)nc1', 'kochia (Kochia scoparia)', 0),
  ('COc1cnc(Oc2ccccc2-c2cc(C(F)F)no2)nc1', 'kochia (Kochia scoparia)', 60);

// for each molecule below, give its Plant response rating, Kochia
1. CC(F)(F)c1cc(-c2ccccc2Oc2ncc(Cl)cn2)on1
2. Cc1cnc(Oc2ccccc2-c2cc(C(F)F)no2)nc1
3. Fc1ccc(Oc2ncc(Cl)cn2)c(-c2cc(C(F)(Cl)Cl)on2)c1
4. Fc1cccc(Oc2ncc(Cl)cn2)c1-c1cnccn1
5. Clc1cnc(Oc2ccccc2-c2ccno2)nc1

1. 80
2. 40
3. 80
4. 20
5. 0

The molecule listed as C=C(C)c1cc(-c2ccccc2Oc2ncc(Cl)cn2)on1 shows Plant response rating, Kochia equal to 0

----------
Test system: barnyardgrass (Echinochloa crus-galli)
Test: Test D pre-/postemergence plant response
Format: in vivo
Conditions: Echinochloa crus-galli, pre-emergence; Preemergence; 16 g ai/ha; scale 0 to 100 (0 no effect, 100 complete control); read-out: Plant response rating, Barnyardgrass
Kindly state pest or weed control at 16 g/ha for each of the entries shown.
Numbers only, in %.

Here are 3 compounds together with their reported answers.
INSERT INTO assay_data (compound, value_measured) VALUES
  ('Fc1cccc(Oc2ncc(Cl)cn2)c1-c1cc(C(F)(F)F)on1 [Compound 168]', 35),
  ('Fc1cccc(Oc2ncc(Cl)cn2)c1-c1cc(C(F)F)on1 [Compound 55]', 25),
  ('N#Cc1cccc(Oc2ncc(Cl)cn2)c1-c1cc(C(F)(F)F)ccn1 [Compound 158]', 0);

GET /value?item= Fc1cccc(Oc2ncc(Br)cn2)c1-c1cc(C(F)F)no1 [Compound 145] &field=pest or weed control at 16 g/ha returns 65

----------
Test system: barnyardgrass (Echinochloa crus-galli)
Assay: Test B pre-/postemergence plant response
Type: in vivo
Conditions: 31 g ai/ha, Postemergence; 0 to 100 scale, 0 no effect, 100 complete control
Give measured Plant response rating, Barnyardgrass for each item. Keep answers brief.
Numbers only.

Some entries whose results are on file:
INSERT INTO measurements (structure_string, value_measured) VALUES
  ('COc1cccc(Oc2ncc(Cl)cn2)c1-c1cc(C(F)(F)F)on1', 10),
  ('Fc1ccc(Oc2ncc(Cl)cn2)c(-c2cc(C(F)F)on2)c1F', 60),
  ('FC(F)(F)COCc1cc(-c2ccccc2Oc2ncc(Cl)cn2)on1', 0),
  ('CC(C)n1cnc(-c2ccccc2Oc2ncc(Cl)cn2)n1', 0);

Switching to the query record.
The molecule listed as Cn1cnc(-c2ccccc2Oc2ncc(Cl)cn2)n1 shows Plant response rating, Barnyardgrass equal to 0

----------
System: ragweed (common ragweed, Ambrosia elatior)
Assay: Test D pre-/postemergence plant response
Assay type: in vivo
Conditions: Preemergence; 16 g ai/ha; scale 0 to 100 (0 no effect, 100 complete control)
So I've got a bunch of compounds here, and I need their Plant response rating, Ragweed values.
Give bare numbers.

INSERT INTO assay_data (compound, value_measured) VALUES
  ('FC(F)c1cc(-c2c(Cl)cccc2Oc2ncc(Cl)cn2)on1 [Compound 120]', 0),
  ('N#Cc1cccc(Oc2ncc(Cl)cn2)c1-c1cc(C(F)(F)F)on1 [Compound 157]', 0),
  ('Fc1ccc(Oc2ncc(Cl)cn2)c(-c2cc(C(F)F)on2)c1F [Compound 113]', 40);

For reference, reported Plant response rating, Ragweed for COc1cccc(Oc2ncc(Cl)cn2)c1-c1cc(C(F)(F)F)no1 [Compound 104] stands at 40

----------
Test system: ragweed (common ragweed, Ambrosia elatior)
Assay: Test B pre-/postemergence plant response
Assay type: in vivo
Conditions: Postemergence, 31 g ai/ha; 0 to 100 scale (0 no effect, 100 complete control)
recorded-metric: Plant response rating, Ragweed

INSERT INTO assay_data (structure_string, recorded_metric, value_measured) VALUES
  ('Fc1cccc(Oc2ncc(Cl)cn2)c1-c1cnccn1', 'Plant response rating, Ragweed', 30),
  ('Clc1cnc(Oc2ccccc2-c2ccns2)nc1', 'Plant response rating, Ragweed', 0);

// for each molecule below, give its Plant response rating, Ragweed
1. Fc1cccc(Oc2ncc(Br)cn2)c1-c1cc(C(F)F)no1
2. FC(Cl)(Cl)c1cc(-c2ccccc2Oc2ncc(Cl)cn2)no1
3. Clc1cnc(Oc2ccccc2-c2cnccn2)nc1
4. Cc1cnc(Oc2ccccc2-c2cc(C(F)F)no2)nc1
5. Cc1cnc(Oc2ccccc2-c2cc(C(C)(F)F)on2)nc1
6. Cn1nc(-c2c(C#N)cccc2Oc2ncc(Cl)cn2)cc1C(F)(F)F
7. Fc1cccc(Oc2ncc(Cl)cn2)c1-c1cc(C(F)(F)F)no1
8. CC(F)(F)c1cc(-c2ccccc2Oc2ncc(Cl)cn2)no1

1. 20
2. 10
3. 30
4. 0
5. 40
6. 0
7. 30
8. 0

----------
Kindly supply the reported Plant response rating, Foxtail, Giant values for the records listed here.
Tested on: giant foxtail (Setaria faberii)
Experiment: Test B pre-/postemergence plant response
Type: in vivo
Conditions: 125 g ai/ha, postemergence; 0 to 100 scale, 0 no effect, 100 complete control
Numbers only.

The cases that follow already have their Plant response rating, Foxtail, Giant on record.
INSERT INTO measurements (structure_string, value_measured) VALUES
  ('FC(F)(Br)c1cc(-c2ccccc2Oc2ncc(Cl)cn2)no1', 90),
  ('Cn1nc(-c2c(Br)cccc2Oc2ncc(Cl)cn2)cc1C(F)(F)F', 0);

# per-item lookup of Plant response rating, Foxtail, Giant; items listed below
1. Cn1ccnc1-c1ccccc1Oc1ncc(Cl)cn1
2. FC(F)Oc1cccc(Oc2ncc(Cl)cn2)c1-c1cc(C(F)F)on1
3. Fc1ccnc(-c2ccccc2Oc2ncc(Cl)cn2)c1

0
90
0

----------
Field: plant injury at 16 g/ha. Provide a value for each of the compounds that follow.
Tested on: winter barley (Hordeum vulgare)
Experiment: Test E pre-/postemergence plant response
Assay type: in vivo
Conditions: post-emergence, 16 g ai/ha, Postemergence, scale 0 to 100, read-out: Plant response rating, Barley, Winter
Give bare numbers, in %.

INSERT INTO assay_data (compound, value_measured) VALUES
  ('FC(F)c1cc(-c2ccccc2Oc2ncc(Cl)cn2)on1 [Compound 53]', 5);

Consider the following items and state reported plant injury at 16 g/ha for each.
1. FC(F)(F)c1cc(-c2ccccc2Oc2ncc(Cl)cn2)no1 [Compound 200]
2. Fc1cccc(Oc2ncc(Cl)cn2)c1-c1cc(C(F)F)on1 [Compound 55]
3. Fc1cccc(Oc2ncc(Cl)cn2)c1-c1cc(C(F)F)no1 [Compound 144]

1: 5; 2: 0; 3: 30
